# assay_protocol: self-splicing fitness, log relative to wild type (ln ratio); higher = more splicing; Tetrahymena group I intron in knt gene, E. coli kanamycin selection, DiMSum; sequences stand for … in CUCUCU…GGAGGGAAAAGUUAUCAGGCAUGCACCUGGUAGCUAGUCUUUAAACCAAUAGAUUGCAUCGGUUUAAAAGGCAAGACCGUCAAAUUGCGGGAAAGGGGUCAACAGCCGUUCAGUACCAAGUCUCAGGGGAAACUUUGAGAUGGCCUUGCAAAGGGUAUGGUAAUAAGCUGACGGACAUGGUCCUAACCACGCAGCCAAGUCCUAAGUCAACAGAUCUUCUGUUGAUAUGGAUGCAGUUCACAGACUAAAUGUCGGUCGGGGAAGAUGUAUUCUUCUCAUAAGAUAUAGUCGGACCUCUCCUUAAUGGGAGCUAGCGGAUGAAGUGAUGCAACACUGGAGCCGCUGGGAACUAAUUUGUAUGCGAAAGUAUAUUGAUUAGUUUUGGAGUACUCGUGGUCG;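 note: selection with 25 µg/mL kanamycin versus none on LB agar overnight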
# condition_details: 37 °C
Provide the reported self-splicing fitness (ln) of each item.
Answer field: number only, no words.

Data request: Which value of self-splicing fitness (ln) has been reported for UUGUAGCAAUAUUACGAGCC in the records?
Data returned: -1.78

Data request: Now the same for CGUUAGCAAUAUUACGAUCU
Data returned: -0.132

Data request: Now the same for CUAUAGCAAUAUUACGUAGU
Data returned: -2.26

Data request: Now the same for ACAGAGCAAUAUUACGAGUA
Data returned: -2.34

Data request: Now the same for UACGAGCAAUAUUACGUUCU
Data returned: -2.35

Data request: Now the same for ACCCAGCAAUAUUACGCCAA
Data returned: -2.03

Data request: Now the same for CAGAAGCAAUAUUACGUAAA
Data returned: -1.73

###

Provide the reported self-splicing fitness (ln) of each item.
# assay_protocol: self-splicing fitness, log relative to wild type (ln ratio); higher = more splicing; Tetrahymena group I intron in knt gene, E. coli kanamycin selection, DiMSum; sequences stand for … in CUCUCU…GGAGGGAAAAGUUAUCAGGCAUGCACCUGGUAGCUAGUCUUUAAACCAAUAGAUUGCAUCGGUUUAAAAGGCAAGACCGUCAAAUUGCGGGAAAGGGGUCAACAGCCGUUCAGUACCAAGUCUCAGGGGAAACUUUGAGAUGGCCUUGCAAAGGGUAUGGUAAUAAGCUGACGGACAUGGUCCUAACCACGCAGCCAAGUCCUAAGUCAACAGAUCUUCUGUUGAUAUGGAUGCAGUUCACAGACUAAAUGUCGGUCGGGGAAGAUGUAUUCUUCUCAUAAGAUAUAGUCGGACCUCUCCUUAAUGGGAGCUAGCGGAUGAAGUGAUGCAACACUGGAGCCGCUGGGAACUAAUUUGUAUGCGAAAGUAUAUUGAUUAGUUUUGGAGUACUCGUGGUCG
# condition_details: 30 °C
Answer field: number only, no words.

Data request: Which value of self-splicing fitness (ln) has been reported for UGCGAGCAAUAUUACGAUGG in the records?
Data returned: -3.43

Data request: Now the same for AGAUAGCAAUAUUACGAUCG
Data returned: 0.112

Data request: Now the same for CAGGAGCAAUAUUACGUACA
Data returned: -2.55

Data request: Now the same for UUUUAGCAAUAUUACGCACA
Data returned: -0.201

Data request: Now the same for CAGGAGCAAUAUUACGGACU
Data returned: -1.86

Data request: Now the same for UAGCAGCAAUAUUACGGAAC
Data returned: -4.05

###

# assay_protocol: self-splicing fitness, log relative to wild type (ln ratio); higher = more splicing; Tetrahymena group I intron in knt gene, E. coli kanamycin selection, DiMSum; sequences stand for … in CUCUCU…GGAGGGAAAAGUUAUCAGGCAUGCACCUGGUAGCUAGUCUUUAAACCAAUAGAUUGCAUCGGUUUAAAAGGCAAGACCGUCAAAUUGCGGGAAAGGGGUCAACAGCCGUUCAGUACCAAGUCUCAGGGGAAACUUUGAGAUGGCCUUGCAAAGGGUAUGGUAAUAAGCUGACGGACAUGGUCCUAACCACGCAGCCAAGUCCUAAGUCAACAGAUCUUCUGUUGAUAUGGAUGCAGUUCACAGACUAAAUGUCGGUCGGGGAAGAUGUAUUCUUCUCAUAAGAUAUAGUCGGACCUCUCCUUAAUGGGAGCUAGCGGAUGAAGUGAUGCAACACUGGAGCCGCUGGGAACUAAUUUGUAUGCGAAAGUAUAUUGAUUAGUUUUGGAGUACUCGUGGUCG
# condition_details: 37 °C
outcome_measure: self-splicing fitness (ln)
Answer field: number only, no words.

Data request: Which value of self-splicing fitness (ln) has been reported for GUGUAGCAAUAUUACGCUAG in the records?
Data returned: -1.88

Data request: Now the same for ACCAAGCAAUAUUACGCUAC
Data returned: -0.773

Data request: Now the same for UUUGAGCAAUAUUACGCCGG
Data returned: 0.228

Data request: Now the same for UUUAAGCAAUAUUACGCUCU
Data returned: -0.539

Data request: Now the same for AGGAAGCAAUAUUACGUAGA
Data returned: -2.42

Data request: Now the same for GUUAAGCAAUAUUACGCCGG
Data returned: -0.148

Data request: Now the same for CGACAGCAAUAUUACGUCUG
Data returned: -0.38

Data request: Now the same for CGCAAGCAAUAUUACGGUUU
Data returned: -2.53

Data request: Now the same for UAACAGCAAUAUUACGCCUU
Data returned: -0.968

Data request: Now the same for UGGCAGCAAUAUUACGUAGG
Data returned: -0.975

Data request: Now the same for UUGAAGCAAUAUUACGGACG
Data returned: 0.902

Data request: Now the same for ACUCAGCAAUAUUACGCGGA
Data returned: -3.35

Data request: Now the same for CUGCAGCAAUAUUACGACGG
Data returned: -0.0134

Data request: Now the same for UAAAAGCAAUAUUACGGCCC
Data returned: -1.28

Data request: Now the same for UUUCAGCAAUAUUACGGCGU
Data returned: -0.454

Data request: Now the same for GGGGAGCAAUAUUACGCCAA
Data returned: -0.647

Data request: Now the same for GAAAAGCAAUAUUACGAGUA
Data returned: -2.44

Data request: Now the same for GAUGAGCAAUAUUACGCGCA
Data returned: -1.58

Data request: Now the same for GCACAGCAAUAUUACGCUCA
Data returned: -0.585

Data request: Now the same for UUCUAGCAAUAUUACGUGUA
Data returned: -0.8

###

# assay_protocol: self-splicing fitness, log relative to wild type (ln ratio); higher = more splicing; Tetrahymena group I intron in knt gene, E. coli kanamycin selection, DiMSum; sequences stand for … in CUCUCU…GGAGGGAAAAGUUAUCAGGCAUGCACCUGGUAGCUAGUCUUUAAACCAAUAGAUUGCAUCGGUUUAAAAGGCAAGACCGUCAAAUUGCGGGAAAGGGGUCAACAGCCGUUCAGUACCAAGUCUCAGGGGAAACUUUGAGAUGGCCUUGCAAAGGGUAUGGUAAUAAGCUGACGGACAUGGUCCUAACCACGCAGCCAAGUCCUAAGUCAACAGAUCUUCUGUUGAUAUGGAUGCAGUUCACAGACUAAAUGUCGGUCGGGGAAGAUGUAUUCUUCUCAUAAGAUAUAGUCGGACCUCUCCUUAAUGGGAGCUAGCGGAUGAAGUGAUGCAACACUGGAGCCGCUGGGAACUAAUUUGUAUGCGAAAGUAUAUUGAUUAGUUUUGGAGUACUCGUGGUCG
# condition_details: 37 °C
Assign class by self-splicing fitness (ln): not lower than -0.4 means Yes; lower than -0.4 means No.

Data request: Is the recorded value of self-splicing fitness (ln) equal to or greater than -0.4 for this sequence? CAGAAGCAAUAUUACGUGAU
Data returned: No

Data request: Now the same for GUUUAGCAAUAUUACGGGUG
Data returned: No

Data request: Now the same for GACAAGCAAUAUUACGAGAA
Data returned: No

Data request: Now the same for CUAGAGCAAUAUUACGGAUG
Data returned: Yes

Data request: Now the same for GGUAAGCAAUAUUACGAAUC
Data returned: Yes

Data request: Now the same for UCAAAGCAAUAUUACGGGAC
Data returned: No

Data request: Now the same for AUUUAGCAAUAUUACGACAC
Data returned: Yes

Data request: Now the same for CCCAAGCAAUAUUACGGUGG
Data returned: No

Data request: Now the same for CUAUAGCAAUAUUACGGUGC
Data returned: No

Data request: Now the same for GUCCAGCAAUAUUACGAAAG
Data returned: Yes

###

Provide the reported self-splicing fitness (ln) of each item.
# assay_protocol: self-splicing fitness, log relative to wild type (ln ratio); higher = more splicing; Tetrahymena group I intron in knt gene, E. coli kanamycin selection, DiMSum; sequences stand for … in CUCUCU…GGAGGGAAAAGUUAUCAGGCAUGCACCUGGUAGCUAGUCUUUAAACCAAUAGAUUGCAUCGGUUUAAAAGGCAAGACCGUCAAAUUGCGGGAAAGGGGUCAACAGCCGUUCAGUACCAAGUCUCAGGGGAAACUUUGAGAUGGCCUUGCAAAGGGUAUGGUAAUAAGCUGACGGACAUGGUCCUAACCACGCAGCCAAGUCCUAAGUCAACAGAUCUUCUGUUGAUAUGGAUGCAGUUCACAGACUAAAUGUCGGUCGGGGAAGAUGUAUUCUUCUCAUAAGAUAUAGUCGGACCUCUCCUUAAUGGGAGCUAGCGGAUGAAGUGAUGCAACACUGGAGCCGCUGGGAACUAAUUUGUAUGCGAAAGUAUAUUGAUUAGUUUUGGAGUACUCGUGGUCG
# condition_details: 30 °C
Answer field: number only, no words.

Data request: Which value of self-splicing fitness (ln) has been reported for GUCCAGCAAUAUUACGGGGG in the records?
Data returned: -2.01

Data request: Now the same for GCGGAGCAAUAUUACGUCCA
Data returned: -2.88

Data request: Now the same for AGUCAGCAAUAUUACGCGAA
Data returned: -1.21

Data request: Now the same for AUCCAGCAAUAUUACGGUCU
Data returned: -0.68

Data request: Now the same for UGCAAGCAAUAUUACGAUAG
Data returned: -1.09

Data request: Now the same for AUAGAGCAAUAUUACGGCGC
Data returned: -1.36

Data request: Now the same for AUCCAGCAAUAUUACGCUUG
Data returned: -3.27

Data request: Now the same for GAUGAGCAAUAUUACGUAAC
Data returned: -1.63

Data request: Now the same for AACUAGCAAUAUUACGGUGC
Data returned: -2.46

Data request: Now the same for GGCGAGCAAUAUUACGUGUA
Data returned: -2.41

Data request: Now the same for ACAUAGCAAUAUUACGUCGU
Data returned: -2.92

Data request: Now the same for AGGUAGCAAUAUUACGCGUU
Data returned: -1.89

Data request: Now the same for UUUCAGCAAUAUUACGAACA
Data returned: -0.771

Data request: Now the same for CCCGAGCAAUAUUACGUUCA
Data returned: -3

Data request: Now the same for AGACAGCAAUAUUACGAGCC
Data returned: -0.273

Data request: Now the same for GUCUAGCAAUAUUACGGUUU
Data returned: -1.42

Data request: Now the same for ACCCAGCAAUAUUACGUUGA
Data returned: -1.66

Data request: Now the same for CCCAAGCAAUAUUACGGAAU
Data returned: -3.88

Data request: Now the same for GAUAAGCAAUAUUACGCACG
Data returned: -1.16

Data request: Now the same for CAACAGCAAUAUUACGUUGG
Data returned: -2.86

Data request: Now the same for AUAGAGCAAUAUUACGGGUG
Data returned: -3.22

Data request: Now the same for UGACAGCAAUAUUACGGUGU
Data returned: -4.28

Data request: Now the same for UAAUAGCAAUAUUACGGCAA
Data returned: -1.99

Data request: Now the same for CGCCAGCAAUAUUACGUCAA
Data returned: -2.51
